Assignment: determine reported viability, T/C for the given molecules.
System: 556581-035-R-J1-PDC complex spheroid growth
Assay: Anticancer human tumor 556581-035-R-J1-PDC patient-derived ovarian carcinoma cell line growth inhibition [AhR]
Settings: second compound 0.1 µM; first compound 0.00316 µM; stronger effect = lower value

Reading of viability, T/C for CC1COCCN1c1cc(-c2ccnn2C)c2ccnc(-c3ccn[nH]3)c2n1 (centres undefined) + Cc1cncc(-c2nc(NCCc3c[nH]c4ccccc34)c3ncn(C(C)C)c3n2)c1 with 556581-035-R-J1-PDC complex spheroid growth: 99.4%

Reading of viability, T/C for Cn1ncnc1C1c2n[nH]c(=O)c3cc(F)cc(c23)NC1c1ccc(F)cc1 (centres undefined) + Cc1cncc(-c2nc(NCCc3c[nH]c4ccccc34)c3ncn(C(C)C)c3n2)c1 with 556581-035-R-J1-PDC complex spheroid growth: 95.1%

Reading of viability, T/C for Cn1ncnc1C1c2n[nH]c(=O)c3cc(F)cc(c23)NC1c1ccc(F)cc1 (centres undefined) + Cc1ccccc1N=Nc1ccc(NC(=O)c2ccnn2C)c(C)c1 with 556581-035-R-J1-PDC complex spheroid growth: 103%

Reading of viability, T/C for Nc1ncn(C2CC(O)C(CO)O2)c(=O)n1 (centres undefined) + CC(CO)NC(=O)c1cc(-c2ccc(Cl)cc2)nn(-c2cnn(C)c2)c1=O with 556581-035-R-J1-PDC complex spheroid growth: 92.5%

###

Test system: 556581-035-R-J1-PDC complex spheroid growth
Experiment: Anticancer human tumor 556581-035-R-J1-PDC cell line growth inhibition [AhR]
Details: curve of first compound; second compound 3.16 µM
pIC50: −log10 of the molar value.
recorded endpoint: pIC50

// O=C(C=Cc1cccc(S(=O)(=O)Nc2ccccc2)c1)NO + Cc1ccccc1N=Nc1ccc(NC(=O)c2ccnn2C)c(C)c1 : pIC50 value = 5.95

// O=C(c1cc(Cc2n[nH]c(=O)c3ccccc23)ccc1F)N1CCN(C(=O)C2CC2)CC1 + CC(CO)NC(=O)c1cc(-c2ccc(Cl)cc2)nn(-c2cnn(C)c2)c1=O : pIC50 value = < 5.00

// NS(=O)(=O)OCC1CC(n2ccc3c(NC4CCc5ccccc54)ncnc32)CC1O (stereo not given) + CC(CO)NC(=O)c1cc(-c2ccc(Cl)cc2)nn(-c2cnn(C)c2)c1=O : pIC50 value = < 5.00

// NS(=O)(=O)OCC1CC(n2ccc3c(NC4CCc5ccccc54)ncnc32)CC1O (stereo not given) + Cc1ccccc1N=Nc1ccc(NC(=O)c2ccnn2C)c(C)c1 : pIC50 value = < 5.00

// Nc1ncn(C2CC(O)C(CO)O2)c(=O)n1 (stereo not given) + Cc1cncc(-c2nc(NCCc3c[nH]c4ccccc34)c3ncn(C(C)C)c3n2)c1 : pIC50 value = < 6.00

// CC[C@@]1(O)C(=O)OCc2c1cc1n(c2=O)Cc2cc3c(CN(C)C)c(O)ccc3nc2-1 + Cc1ccccc1N=Nc1ccc(NC(=O)c2ccnn2C)c(C)c1 : pIC50 value = < 7.00

// CC[C@@]1(O)C(=O)OCc2c1cc1n(c2=O)Cc2cc3c(CN(C)C)c(O)ccc3nc2-1 + Cc1cncc(-c2nc(NCCc3c[nH]c4ccccc34)c3ncn(C(C)C)c3n2)c1 : pIC50 value = < 7.00

// Nc1ccn(C2OC(CO)C(O)C2(F)F)c(=O)n1 (stereo not given) + CC(CO)NC(=O)c1cc(-c2ccc(Cl)cc2)nn(-c2cnn(C)c2)c1=O : pIC50 value = > 7.50

// COc1cc(Nc2ncc3c(n2)-c2ccc(Cl)cc2C(c2c(F)cccc2OC)=NC3)ccc1C(=O)O + CC(CO)NC(=O)c1cc(-c2ccc(Cl)cc2)nn(-c2cnn(C)c2)c1=O : pIC50 value = < 5.00

// CC1COCCN1c1cc(-c2ccnn2C)c2ccnc(-c3ccn[nH]3)c2n1 (stereo not given) + Cc1cncc(-c2nc(NCCc3c[nH]c4ccccc34)c3ncn(C(C)C)c3n2)c1 : pIC50 value = 6.12

// O=C(C=Cc1cccc(S(=O)(=O)Nc2ccccc2)c1)NO + CC(CO)NC(=O)c1cc(-c2ccc(Cl)cc2)nn(-c2cnn(C)c2)c1=O : pIC50 value = 5.92

// O=C(C=Cn1cnc(-c2cc(C(F)(F)F)cc(C(F)(F)F)c2)n1)NNc1cnccn1 + Cc1cncc(-c2nc(NCCc3c[nH]c4ccccc34)c3ncn(C(C)C)c3n2)c1 : pIC50 value = < 5.52

// O=C(C=Cn1cnc(-c2cc(C(F)(F)F)cc(C(F)(F)F)c2)n1)NNc1cnccn1 + CC(CO)NC(=O)c1cc(-c2ccc(Cl)cc2)nn(-c2cnn(C)c2)c1=O : pIC50 value = < 5.52

// Nc1ccn(C2OC(CO)C(O)C2(F)F)c(=O)n1 (stereo not given) + Cc1cncc(-c2nc(NCCc3c[nH]c4ccccc34)c3ncn(C(C)C)c3n2)c1 : pIC50 value = > 7.50

// CC1(C)CCC(CN2CCN(c3ccc(C(=O)NS(=O)(=O)c4ccc(NCC5CCOCC5)c([N+](=O)[O-])c4)c(Oc4cnc5[nH]ccc5c4)c3)CC2)=C(c2ccc(Cl)cc2)C1 + CC(CO)NC(=O)c1cc(-c2ccc(Cl)cc2)nn(-c2cnn(C)c2)c1=O : pIC50 value = < 5.00
